Source listed as paper PMC8901119.

assay: Stability of peptides in HepG2 whole cell lysate; format: in vitro ADME; details: human, HepG2 lysate, 2 hours, read-out: % intact peptide
Starred links: 1 amine or outer side, 2 acyl side, 3 side chain; linkers in the order of their positions; H or OH if unused. Non-standard residues stand in square brackets, D forms with d. Residues, ends and D or L forms follow the SMILES beside them. Ala(7-MeO-coumarin-4-yl) = COc1ccc2c(C[C@H](N)C(=O)O)cc(=O)oc2c1; X1 = C[C@H](NC(=S)[C@H](CCCNC(=N)N)N[*:1])C(=O)[*:2]
PARAMETER: remaining at 2 h, 20 μM (%)
Write the answer as a number in %, unit excluded.

Input COc1ccc2c(C[C@H](NC(=O)[C@H](C)NC(=S)[C@H](CCCNC(=N)N)NC(=O)[C@H](Cc3ccccc3)NC(=O)[C@H](CC(C)C)NC(=O)[C@H](Cc3c[nH]cn3)NC(=O)[C@@H](N)Cc3cc(=O)oc4cc(OC)ccc34)C(=O)O)cc(=O)oc2c1 [R^S1A, μHLFR^SAμ] (H-[Ala(7-MeO-coumarin-4-yl)]HLF[X1][Ala(7-MeO-coumarin-4-yl)]-OH) . Output remaining at 2 h, 20 μM: 86.3
